# TGT: T1, Cynomolgus serum albumin (Cynomolgus monkey, UniProt A2V9Z4 25-608)
# T1 construct: mature; purified native protein; coupled to CM5 BIAcore chip; also called cyno SA; CSA
# METHOD_SUMMARY: SPR, BIAcore 3000, serum albumin coupled to CM5 chip;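 also: Cross-reactivity of anti-serum albumin domain antibodies measured against human, cynomolgus monkey, rat and mouse serum albumin, binding kinetics giving Kd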
PARAMETER_MEASURED: Kd (nM)
Please state the figure in nM; there is no need to write the unit.

The examples below pair each entry with its known result.
* DOM7r-92-101 (VHH, VH immunoglobulin single variable domain (dAb, AlbudAb), not a camelid VHH; tested with a myc tag; not shown: myc tag) VHH: EVQLLESGGGLVQPGGSLRLSCAASGFTFDTSSMLWVRQAPGKGLEWVSVIHQSGTPTYYADSVKGRFTISRDNSKNTLYLQMNSLRAEDTAVYYCAKFPSRKMKFDYRGQGTLVTVSS | 120
* DOM7r-92-102 (VHH, VH immunoglobulin single variable domain (dAb, AlbudAb), not a camelid VHH; tested with a myc tag; not shown: myc tag) VHH: EVQLLESGGGLVQPGGSLRLSCAASGFTFDTSSMLWVRQAPGKGLEWVSVIHQSGTPTYYADSVKGRFTISRDNSKNTLYLQMNSLRAEDTAVYYCAKFPSSQFRFDYWGQGTLVTVSS | 32
* DOM7r-92-103 (VHH, VH immunoglobulin single variable domain (dAb, AlbudAb), not a camelid VHH; tested with a myc tag; not shown: myc tag) VHH: EVQLLESGGGLVQPGGSLRLSCAASGFTFDTSSMLWVRQAPGKGLEWVSVIHQSGTPTYYADSVKGRFTISRDNSKNTLYLQMNSLRAEDTAVYYCAKFPSEGMNFDYWGQGTLVTVSS | 770

Any idea what its Kd is? The binder is DOM7r-36-107 (VHH, VH immunoglobulin single variable domain (dAb, AlbudAb), not a camelid VHH; tested with a myc tag; not shown: myc tag) VHH: EVQLLESGGGLVQPGGSLRLSCAASGFTFNHYTMGWVRQAPGKGREWVSLIHPSGTVTYYADSVKGRFTISRDNSKNTLYLQMNSLRAEDTAVYYCAKWEKKYFDYWGQGTLVTVSS
127

Any idea what its Kd is? The binder is DOM7r-36-103 (VHH, VH immunoglobulin single variable domain (dAb, AlbudAb), not a camelid VHH; tested with a myc tag; not shown: myc tag) VHH: EVQLLESGGGLVQPGGSLRLSCAASGFTFNHYTMGWVRQAPGKGREWVSLIHPSGTVTYYADSVKGRFTTSRDNSKNTLYLQMNSLRAEDTAVYYCAKWDRKLFDHWGQGTLVTVSS
94

Any idea what its Kd is? The binder is DOM7r-36-101 (VHH, VH immunoglobulin single variable domain (dAb, AlbudAb), not a camelid VHH; tested with a myc tag; not shown: myc tag) VHH: EVQLLESGGGLVQPGGSLRLSCAASGFTFNHYTMGWVRQAPGKGREWVSLIHPSGTVTYYADSVKGRFTISRDNSKNTLYLQMNSLRAEDTAVYYCAKWFLKSFDYWGQGTLVTVSS
72

Any idea what its Kd is? The binder is DOM7r-36-108 (VHH, VH immunoglobulin single variable domain (dAb, AlbudAb), not a camelid VHH; tested with a myc tag; not shown: myc tag) VHH: EVQLLESGGGLVQPGGSLRLSCAASGFTFNHYTMGWVRQAPGKGREWVSLIHPSGTVTYYADSVKGRFTTSRDNSKNTLYLQMNSLRAEDTAVYYCAKLEGRSFDYWGQGTLVTVSS
265

Any idea what its Kd is? The binder is DOM7r-36-102 (VHH, VH immunoglobulin single variable domain (dAb, AlbudAb), not a camelid VHH; tested with a myc tag; not shown: myc tag) VHH: EVQLLESGGGLVQPGGSLRLSCAASGFTFNHYTMGWVRQAPGKGREWVSLIHPSGTVTYYADSVKGRFTISRDNSKNTLYLQMNSLRAEDTAVYYCAKWFYRNFDYWGQGTLVTVSS
430
